B1: library; a variant is named by its letters at N, in order (parent)
chain: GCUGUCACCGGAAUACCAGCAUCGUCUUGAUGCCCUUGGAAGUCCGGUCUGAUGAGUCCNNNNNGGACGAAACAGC

Variants of: B1
PROTOCOL: FACS-Seq fitted mean relative fluorescence mCherry/BFP without ligand (log10 relative fluorescence); higher = higher reporter protein expression
TEST CONDITIONS: HEK293T, ligand present: no
Label scheme for FACS-Seq fitted mean (log10): lower than 0.7 is label 0, 0.7 and above is label 1.

Past entries and their recorded results:
CCUGC	label 1
ACUCG	label 1
ACAUC	label 0
UUUUU	label 1
CUCAC	label 1

Identify whether the reported FACS-Seq fitted mean (log10) of the following variant is 0.7 or greater: ACAAA
label 0

Hi, just wondering whether AAGGC shows FACS-Seq fitted mean (log10) of 0.7 or higher.
label 0

// inclusive: FACS-Seq fitted mean (log10) at least 0.7? input: CCUCC
label 1

Check if FACS-Seq fitted mean (log10) >= 0.7 (inclusive). Item: AGCAG
label 1

Please tell me: is the variant AAACU at or over 0.7 in terms of FACS-Seq fitted mean (log10)?
label 0

Record AUCCG ; criterion: FACS-Seq fitted mean (log10) no lower than 0.7. Met?
label 0

# check: FACS-Seq fitted mean (log10) of UUAUC is greater than or equal to 0.7
label 1

Kindly determine if FACS-Seq fitted mean (log10) recorded for UGGCU is above or exactly 0.7.
label 1

The measured values listed here are drawn from the supplement of paper PMC6757056.
